# Tested on: 677734-321-R-J1-PDC complex spheroid viability
# procedureDetails: Anticancer human tumor 677734-321-R-J1-PDC patient-derived soft tissue sarcoma cell line growth inhibition [POLQ]
# measurementSetup: second compound 1 µM; first compound 0.1 µM; stronger effect = lower value
parameterMeasured: viability, T/C (%)
Respond numerically; units are % and should not be typed.

Examples with answers:
| molecule | testedOn | viability, T/C / % |
| --- | --- | --- |
| CCCS(=O)(=O)Nc1ccc(F)c(C(=O)c2c[nH]c3ncc(-c4ccc(Cl)cc4)cc23)c1F + Cc1cccc(N(C)C(=O)C2C(O)CCN2c2nc(C)cc(C(F)(F)F)c2C#N)c1 | 677734-321-R-J1-PDC complex spheroid viability | 93.2 |
| COc1cc2cc(C(=O)CCC(=O)O)sc2cc1OC + Nc1ccc(C#CCN(C(=O)Cc2ncc(C(F)(F)F)cc2C(F)(F)F)c2ccc(F)cc2)nn1 | 677734-321-R-J1-PDC complex spheroid viability | 91.4 |
| CCc1c2c(nc3ccc(O)cc13)-c1cc3c(c(=O)n1C2)COC(=O)[C@]3(O)CC + Cc1cccc(N(C)C(=O)C2C(O)CCN2c2nc(C)cc(C(F)(F)F)c2C#N)c1 | 677734-321-R-J1-PDC complex spheroid viability | 2.53 |
| COc1cccc(OCCCN)c1-c1cc(Nc2cnc(C#N)cn2)n[nH]1 + COC1C(OC(N)=O)C(O)C(Oc2ccc3c(O)c(NC(=O)c4ccc(O)c(CC=C(C)C)c4)c(=O)oc3c2C)OC1(C)C | 677734-321-R-J1-PDC complex spheroid viability | 11.4 |
| CCc1c2c(nc3ccc(O)cc13)-c1cc3c(c(=O)n1C2)COC(=O)[C@]3(O)CC + COC1C(OC(N)=O)C(O)C(Oc2ccc3c(O)c(NC(=O)c4ccc(O)c(CC=C(C)C)c4)c(=O)oc3c2C)OC1(C)C | 677734-321-R-J1-PDC complex spheroid viability | 2.88 |

Now turn to the next molecule.
Consider the molecule O=c1[nH]cc(F)c(=O)[nH]1 + Nc1ccc(C#CCN(C(=O)Cc2ncc(C(F)(F)F)cc2C(F)(F)F)c2ccc(F)cc2)nn1 and give its measured viability, T/C.
93.8

----------
# Tested on: 677734-321-R-J1-PDC complex spheroid viability
# procedureDetails: Anticancer human tumor 677734-321-R-J1-PDC cell line growth inhibition [POLQ];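 note: spheroids exposed to compounds for one week; 100% = vehicle DMSO treated spheroids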
# measurementSetup: second compound 0.0316 µM; first compound 0.0316 µM; stronger effect = lower value
Below, each of the compounds is paired with its reported viability, T/C value.
// units = %; emit number, no label

Can you share its viability, T/C? I mean this compound: O=C(c1cc(Cc2n[nH]c(=O)c3ccccc23)ccc1F)N1CCN(C(=O)C2CC2)CC1 + COC1C(OC(N)=O)C(O)C(Oc2ccc3c(O)c(NC(=O)c4ccc(O)c(CC=C(C)C)c4)c(=O)oc3c2C)OC1(C)C
108

Which viability, T/C is reported for this compound? CC[C@@]1(O)C(=O)OCc2c1cc1n(c2=O)Cc2cc3c(CN(C)C)c(O)ccc3nc2-1 + COC1C(OC(N)=O)C(O)C(Oc2ccc3c(O)c(NC(=O)c4ccc(O)c(CC=C(C)C)c4)c(=O)oc3c2C)OC1(C)C
37.1

// returns reported viability, T/C for input O=c1[nH]cc(F)c(=O)[nH]1 + Cc1cccc(N(C)C(=O)C2C(O)CCN2c2nc(C)cc(C(F)(F)F)c2C#N)c1
104

----------
# Test system: 677734-321-R-J1-PDC complex spheroid viability
# procedureDetails: Anticancer human tumor 677734-321-R-J1-PDC cell line growth inhibition [POLQ];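 note: spheroids exposed to compounds for one week; 100% = vehicle DMSO treated spheroids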
# measurementSetup: second compound 0.316 µM; first compound 3.16 µM; stronger effect = lower value
parameterMeasured: viability, T/C

Worked examples, 10 compounds total:
| compound | testedOn | parameterMeasured | assayResult |
| --- | --- | --- | --- |
| COc1ccc([C@@H](O)c2cc(-c3ncnc4cc(N5CCOCC5)ccc34)c(F)cc2Cl)nn1 + Cc1cccc(N(C)C(=O)C2C(O)CCN2c2nc(C)cc(C(F)(F)F)c2C#N)c1 | 677734-321-R-J1-PDC complex spheroid viability | viability, T/C | 77.4% |
| CC(C)n1c(=O)n(C)c2cnc3cc(F)c(-c4ccc(OCCCN5CCCCC5)nc4)cc3c21 + COC1C(OC(N)=O)C(O)C(Oc2ccc3c(O)c(NC(=O)c4ccc(O)c(CC=C(C)C)c4)c(=O)oc3c2C)OC1(C)C | 677734-321-R-J1-PDC complex spheroid viability | viability, T/C | 112% |
| C=CC(=O)N1CCN(c2nc(=O)n(-c3c(C)ccnc3C(C)C)c3nc(-c4c(O)cccc4F)c(F)cc23)C(C)C1 (stereo not drawn) + Cc1cccc(N(C)C(=O)C2C(O)CCN2c2nc(C)cc(C(F)(F)F)c2C#N)c1 | 677734-321-R-J1-PDC complex spheroid viability | viability, T/C | 113% |
| CC1COCCN1c1cc(C2(S(C)(=N)=O)CC2)nc(-c2ccnc3[nH]ccc23)n1 (stereo not drawn) + Cc1cccc(N(C)C(=O)C2C(O)CCN2c2nc(C)cc(C(F)(F)F)c2C#N)c1 | 677734-321-R-J1-PDC complex spheroid viability | viability, T/C | 54.3% |
| COc1cc(C2c3cc4c(cc3C(OC3OC5COC(C)OC5C(O)C3O)C3COC(=O)C23)OCO4)cc(OC)c1O (stereo not drawn) + Nc1ccc(C#CCN(C(=O)Cc2ncc(C(F)(F)F)cc2C(F)(F)F)c2ccc(F)cc2)nn1 | 677734-321-R-J1-PDC complex spheroid viability | viability, T/C | 12.6% |
| O=c1[nH]cc(F)c(=O)[nH]1 + Nc1ccc(C#CCN(C(=O)Cc2ncc(C(F)(F)F)cc2C(F)(F)F)c2ccc(F)cc2)nn1 | 677734-321-R-J1-PDC complex spheroid viability | viability, T/C | 66.5% |
| O=C(c1cc(Cc2n[nH]c(=O)c3ccccc23)ccc1F)N1CCN(C(=O)C2CC2)CC1 + Cc1cccc(N(C)C(=O)C2C(O)CCN2c2nc(C)cc(C(F)(F)F)c2C#N)c1 | 677734-321-R-J1-PDC complex spheroid viability | viability, T/C | 100% |
| COc1cc(C2c3cc4c(cc3C(OC3OC5COC(C)OC5C(O)C3O)C3COC(=O)C23)OCO4)cc(OC)c1O (stereo not drawn) + COC1C(OC(N)=O)C(O)C(Oc2ccc3c(O)c(NC(=O)c4ccc(O)c(CC=C(C)C)c4)c(=O)oc3c2C)OC1(C)C | 677734-321-R-J1-PDC complex spheroid viability | viability, T/C | 23.9% |
| CCc1cc2c(N3CCc4c(cc(Cn5ccnc5)cc4-c4cn(C)nc4C(F)(F)F)C3=O)cc(C)nc2c(OC)n1 + Nc1ccc(C#CCN(C(=O)Cc2ncc(C(F)(F)F)cc2C(F)(F)F)c2ccc(F)cc2)nn1 | 677734-321-R-J1-PDC complex spheroid viability | viability, T/C | 73.2% |
| COc1ccc([C@@H](O)c2cc(-c3ncnc4cc(N5CCOCC5)ccc34)c(F)cc2Cl)nn1 + Nc1ccc(C#CCN(C(=O)Cc2ncc(C(F)(F)F)cc2C(F)(F)F)c2ccc(F)cc2)nn1 | 677734-321-R-J1-PDC complex spheroid viability | viability, T/C | 71.5% |

What viability, T/C value was documented for this compound, C=CC(=O)N1CCN(c2nc(=O)n(-c3c(C)ccnc3C(C)C)c3nc(-c4c(O)cccc4F)c(F)cc23)C(C)C1 (stereo not drawn) + COC1C(OC(N)=O)C(O)C(Oc2ccc3c(O)c(NC(=O)c4ccc(O)c(CC=C(C)C)c4)c(=O)oc3c2C)OC1(C)C ?
107%

Recorded viability, T/C of CC1COCCN1c1cc(-c2ccnn2C)c2ccnc(-c3ccn[nH]3)c2n1 (stereo not drawn) + Cc1cccc(N(C)C(=O)C2C(O)CCN2c2nc(C)cc(C(F)(F)F)c2C#N)c1 , please.
20.3%

Query (compound): CNCc1ccc(-c2[nH]c3cc(F)cc4c3c2CCNC4=O)cc1 + Cc1cccc(N(C)C(=O)C2C(O)CCN2c2nc(C)cc(C(F)(F)F)c2C#N)c1 ; field requested: viability, T/C
113%

----------
# System: 677734-321-R-J1-PDC complex spheroid viability
# procedureDetails: Anticancer human tumor 677734-321-R-J1-PDC cell line growth inhibition [POLQ];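 note: spheroids exposed to compounds for one week; 100% = vehicle DMSO treated spheroids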
# measurementSetup: second compound 1 µM; first compound 1 µM; stronger effect = lower value
parameterMeasured: viability, T/C (%)
Could you give me the number in %? Just the number is fine.

The following compounds have reported results that may help.
| compound | unitOfMeasure | viability, T/C |
| --- | --- | --- |
| CC1COCCN1c1cc(C2(S(C)(=N)=O)CC2)nc(-c2ccnc3[nH]ccc23)n1 (centres undefined) + Nc1ccc(C#CCN(C(=O)Cc2ncc(C(F)(F)F)cc2C(F)(F)F)c2ccc(F)cc2)nn1 | % | 59.2 |
| Nc1ccn(C2OC(CO)C(O)C2(F)F)c(=O)n1 (centres undefined) + Nc1ccc(C#CCN(C(=O)Cc2ncc(C(F)(F)F)cc2C(F)(F)F)c2ccc(F)cc2)nn1 | % | 13.7 |
| CC1COCCN1c1cc(C2(S(C)(=N)=O)CC2)nc(-c2ccnc3[nH]ccc23)n1 (centres undefined) + COC1C(OC(N)=O)C(O)C(Oc2ccc3c(O)c(NC(=O)c4ccc(O)c(CC=C(C)C)c4)c(=O)oc3c2C)OC1(C)C | % | 92.2 |
| COc1cc(C2c3cc4c(cc3C(OC3OC5COC(C)OC5C(O)C3O)C3COC(=O)C23)OCO4)cc(OC)c1O (centres undefined) + Cc1cccc(N(C)C(=O)C2C(O)CCN2c2nc(C)cc(C(F)(F)F)c2C#N)c1 | % | 50.1 |
| Nc1ccn(C2OC(CO)C(O)C2(F)F)c(=O)n1 (centres undefined) + COC1C(OC(N)=O)C(O)C(Oc2ccc3c(O)c(NC(=O)c4ccc(O)c(CC=C(C)C)c4)c(=O)oc3c2C)OC1(C)C | % | 14.3 |

What measured viability, T/C is associated with CNCc1ccc(-c2[nH]c3cc(F)cc4c3c2CCNC4=O)cc1 + Nc1ccc(C#CCN(C(=O)Cc2ncc(C(F)(F)F)cc2C(F)(F)F)c2ccc(F)cc2)nn1 on 677734-321-R-J1-PDC complex spheroid viability?
91.8

Query for 677734-321-R-J1-PDC complex spheroid viability: what viability, T/C does the record show for COc1cccc(OCCCN)c1-c1cc(Nc2cnc(C#N)cn2)n[nH]1 + COC1C(OC(N)=O)C(O)C(Oc2ccc3c(O)c(NC(=O)c4ccc(O)c(CC=C(C)C)c4)c(=O)oc3c2C)OC1(C)C ?
8.34

What value of viability, T/C on 677734-321-R-J1-PDC complex spheroid viability does CCc1cc2c(N3CCc4c(cc(Cn5ccnc5)cc4-c4cn(C)nc4C(F)(F)F)C3=O)cc(C)nc2c(OC)n1 + Cc1cccc(N(C)C(=O)C2C(O)CCN2c2nc(C)cc(C(F)(F)F)c2C#N)c1 have?
88.1

Can you look up viability, T/C on 677734-321-R-J1-PDC complex spheroid viability for COc1cc2cc(C(=O)CCC(=O)O)sc2cc1OC + Cc1cccc(N(C)C(=O)C2C(O)CCN2c2nc(C)cc(C(F)(F)F)c2C#N)c1 ?
99.7
